Target: Ubiquitin carboxyl-terminal hydrolase 1 (Homo sapiens)
Assay: Inhibitors of USP1/UAF1: Pilot qHTS (AID 504865); also: nearly all actives have a fitted effect of over 35% in size
Details: purified USP1/UAF1, Ub-rhodamine cleavage fluorescence; series mostly up to 114 µM
Inconclusive results are not listed. Active and inactive are the calls of the source. Calls follow the shape of the dose curve; as a rule, active = well fitted inhibition curve with a large enough effect; inconclusive = small, poorly fitted or top-dose-only effect; inactive = flat fitted curve, though single readings scatter.
Outcomes: active, inactive

{"COMPOUND": "OC(CCN1CCCCC1)(c1ccccc1)C1CCCCC1 (stereo not drawn)", "QUALITATIVE LABEL": "inactive"}
{"COMPOUND": "CC(C)(C)NCC(O)c1cc(O)cc(O)c1 (stereo not drawn)", "QUALITATIVE LABEL": "inactive"}
{"COMPOUND": "NC/C=C/C(=O)O", "QUALITATIVE LABEL": "inactive"}
{"COMPOUND": "CN(C)CC[C@@H](c1ccc(Br)cc1)c1ccccn1", "QUALITATIVE LABEL": "inactive"}
{"COMPOUND": "CC(=O)Nc1nnc(S(N)(=O)=O)s1", "QUALITATIVE LABEL": "inactive"}
{"COMPOUND": "Cc1cc(C)c(/C=C2\\C(=O)Nc3ccccc32)[nH]1", "QUALITATIVE LABEL": "active"}
{"COMPOUND": "Cc1ccc(/C(=C\\CN2CCCC2)c2ccccn2)cc1", "QUALITATIVE LABEL": "inactive"}
{"COMPOUND": "CC(C)NCC(O)c1cc(O)cc(O)c1 (stereo not drawn)", "QUALITATIVE LABEL": "inactive"}
{"COMPOUND": "c1ccc2c(c1)CCCC2C1=NCCN1 (stereo not drawn)", "QUALITATIVE LABEL": "inactive"}
{"COMPOUND": "C[C@]12CCC(=O)C=C1CC[C@@H]1[C@@H]2C(=O)C[C@@]2(C)[C@H]1CC[C@]2(O)C(=O)CO", "QUALITATIVE LABEL": "inactive"}
{"COMPOUND": "Cc1ccc(=O)n(-c2ccccc2)c1", "QUALITATIVE LABEL": "inactive"}
{"COMPOUND": "CN(C)C/C=C(/c1ccc(Br)cc1)c1cccnc1", "QUALITATIVE LABEL": "inactive"}
{"COMPOUND": "C[N+](C)(C)CCOC(=O)CCC(=O)OCC[N+](C)(C)C", "QUALITATIVE LABEL": "inactive"}

All values here come from PubChem BioAssay (NCATS).
